Non-standard residues stand in square brackets, D forms with d. Residues, ends and D or L forms follow the SMILES beside them. Arg(Me) = CNC(=N)NCCC[C@H](N)C(=O)O; d3Pal = N[C@H](Cc1cccnc1)C(=O)O; Cha = N[C@@H](CC1CCCCC1)C(=O)O; azaGly = NNC(=O)O
pKi, KiSS-1 receptor (Rattus norvegicus, UniProt Q924U1), per-entry values.
FYI, pKi means -log10 of a concentration in mol per litre.

Input line: Recorded pKi for CNC(=N)NCCC[C@H](NC(=O)[C@H](CC(C)C)NC(=O)NNC(=O)[C@H](Cc1ccccc1)NC(=O)[C@H](CO)NC(=O)[C@H](CC(N)=O)NC(=O)[C@H](CC1CCCCC1)NC(=O)[C@@H](CC(N)=O)NC(=O)[C@H](N)Cc1ccc(O)cc1)C(=O)N[C@@H](Cc1ccccc1)C(N)=O (H-[dY][dN][Cha]NSF[azaGly]L[Arg(Me)]F-NH2) with KiSS-1 receptor (Rattus norvegicus, UniProt Q924U1), please?
Output line: 10.12

Input line: Recorded pKi for CNC(N)=NCCC[C@H](NC(=O)[C@H](CC(C)C)NC(=O)NNC(=O)[C@H](Cc1ccccc1)NC(=O)[C@H](CO)NC(=O)[C@H](CC(N)=O)NC(=O)[C@@H](Cc1ccncc1)NC(=O)[C@H](CC(N)=O)NC(=O)[C@H](N)Cc1ccc(O)cc1)C(=O)N[C@@H](Cc1ccccc1)C(N)=O with KiSS-1 receptor (Rattus norvegicus, UniProt Q924U1), please?
Output line: 9.92

Input line: Recorded pKi for CNC(=N)NCCC[C@H](NC(=O)[C@H](CC(C)C)NC(=O)NNC(=O)[C@H](Cc1ccccc1)NC(=O)[C@H](CO)NC(=O)[C@H](CC(N)=O)NC(=O)[C@H](CC1CCCCC1)NC(=O)[C@@H](CC(N)=O)NC(=O)[C@H](N)Cc1cccnc1)C(=O)N[C@@H](Cc1ccccc1)C(N)=O (H-[d3Pal][dN][Cha]NSF[azaGly]L[Arg(Me)]F-NH2) with KiSS-1 receptor (Rattus norvegicus, UniProt Q924U1), please?
Output line: 9.74

Input line: Recorded pKi for CNC(=N)NCCC[C@H](NC(=O)[C@H](CC(C)C)NC(=O)NNC(=O)[C@H](Cc1ccccc1)NC(=O)[C@H](CO)NC(=O)[C@H](CC(N)=O)NC(=O)[C@H](Cc1c[nH]c2ccccc12)NC(=O)[C@H](CC(N)=O)NC(=O)[C@H](N)Cc1cccnc1)C(=O)N[C@@H](Cc1ccccc1)C(N)=O (H-[d3Pal]NWNSF[azaGly]L[Arg(Me)]F-NH2) with KiSS-1 receptor (Rattus norvegicus, UniProt Q924U1), please?
Output line: 9.85

Input line: Recorded pKi for CNC(=N)NCCC[C@H](NC(=O)[C@H](CC(C)C)NC(=O)NNC(=O)[C@H](Cc1ccccc1)NC(=O)[C@H](CO)NC(=O)[C@H](CC(N)=O)NC(=O)[C@H](Cc1c[nH]c2ccccc12)NC(=O)[C@@H](Cc1cnc[nH]1)NC(=O)[C@H](N)Cc1ccc(O)cc1)C(=O)N[C@@H](Cc1ccccc1)C(N)=O with KiSS-1 receptor (Rattus norvegicus, UniProt Q924U1), please?
Output line: 10.37
